From: BindingDB's records for doi:10.1016/j.ejmech.2017.08.029

# experiment_notes: Inhibition of human GLUT1 in human KMS11 cells over-expressing human GLUT1 assessed as as inhibition of receptor-mediated cell proliferation after 72 hrs by CellTiter-Glo assay
# if measured IC50 < 20 µM: true  # else: false

Problem: is_below(IC50, 20 µM) for `COc1ccc(C(=O)N(Cc2ccncc2)Cc2cccc(OCC3CCCCC3)c2)cc1` ?
Solution: true

Problem: is_below(IC50, 20 µM) for `COc1ccc(C(=O)N(Cc2ccncc2)Cc2cccc(OCc3ccc([N+](=O)[O-])cc3)c2)cc1` ?
Solution: true

Problem: is_below(IC50, 20 µM) for `COc1ccc(CC(=O)N(Cc2ccncc2)Cc2cccc(OCCc3ccc(F)cc3)c2)cc1` ?
Solution: false

---
Problem: is_below(IC50, 20 µM) for `COc1ccc(C(=O)N(Cc2ccncc2)Cc2cccc(OCCc3cccc(C(F)(F)F)c3)c2)cc1` ?
Solution: true

Problem: is_below(IC50, 20 µM) for `COc1ccc(C(=O)N(Cc2ccncc2)Cc2cccc(OCC(=O)c3cccc(Br)c3)c2)cc1` ?
Solution: false
